target: α1A Human Adrenergic Receptor (Homo sapiens); construct: The entire coding region of α1A (1719 bp); expressed in transfected cells; assay: Radioligand binding, [3H]prazosin, cloned human α1A adrenergic receptor; conditions: [3H]prazosin, cloned human α1A receptor, LM(tk-) cell membranes; read-out: PKi alpha-1 1a (converted)
Sequence (P25100 whole entry): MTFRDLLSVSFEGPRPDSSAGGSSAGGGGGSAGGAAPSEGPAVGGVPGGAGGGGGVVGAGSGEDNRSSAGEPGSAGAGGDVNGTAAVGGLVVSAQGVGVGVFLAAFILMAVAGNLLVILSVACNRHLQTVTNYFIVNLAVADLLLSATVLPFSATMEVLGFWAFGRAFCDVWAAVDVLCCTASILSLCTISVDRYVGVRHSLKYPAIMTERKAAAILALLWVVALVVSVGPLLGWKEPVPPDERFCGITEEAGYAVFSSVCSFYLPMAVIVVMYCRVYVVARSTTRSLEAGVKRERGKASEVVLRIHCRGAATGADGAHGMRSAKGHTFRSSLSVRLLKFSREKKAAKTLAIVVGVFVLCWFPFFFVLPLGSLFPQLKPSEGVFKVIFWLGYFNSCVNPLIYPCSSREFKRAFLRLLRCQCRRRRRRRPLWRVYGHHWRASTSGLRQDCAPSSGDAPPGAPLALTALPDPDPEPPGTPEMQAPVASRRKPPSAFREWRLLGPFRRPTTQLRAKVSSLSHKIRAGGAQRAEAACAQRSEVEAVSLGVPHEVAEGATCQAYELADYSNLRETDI
measurement.label: Ki
Reply with a number, then the unit it belongs to.

CCC1=C(C(=O)NN2CCOCC2)C(c2ccc([N+](=O)[O-])cc2)C(C(=O)NCCCN2CCC(c3ccccc3)(c3ccccc3)CC2)=C(COC)N1 (centres unmarked) :: 2950 nM
COC(=O)C1=C(C)NC(C)=C(C(=O)NCCCN2CCC(c3ccccc3)CC2)C1c1ccc2c(c1)OCO2 (centres unmarked) :: 603 nM
CCOC(=O)C1(c2ccccc2)CCN(CCCNC(=O)C2=C(COCC(F)(F)F)NC(C)=C(C(N)=O)C2c2ccc([N+](=O)[O-])cc2)CC1 (centres unmarked) :: 1510 nM
CCOC(=O)C1(c2ccccc2)CCN(CCCNC(=O)C2=C(COCCN)NC(C)=C(C(C)=O)C2c2ccc3c(c2)OCO3)CC1 (centres unmarked) :: 851 nM

For the molecule COC(=O)C1(c2ccccc2)CCN(CCCNC(=O)C2=C(COCCN)NC(C)=C(C(C)=O)C2c2ccc(F)cc2)CC1 (centres unmarked) , what Ki is on record?
977 nM

###

Target: α2C receptor (Homo sapiens)
Construct: host or cells: LM(tk-) cells, line L-α2C
Sequence (P18825 1-462): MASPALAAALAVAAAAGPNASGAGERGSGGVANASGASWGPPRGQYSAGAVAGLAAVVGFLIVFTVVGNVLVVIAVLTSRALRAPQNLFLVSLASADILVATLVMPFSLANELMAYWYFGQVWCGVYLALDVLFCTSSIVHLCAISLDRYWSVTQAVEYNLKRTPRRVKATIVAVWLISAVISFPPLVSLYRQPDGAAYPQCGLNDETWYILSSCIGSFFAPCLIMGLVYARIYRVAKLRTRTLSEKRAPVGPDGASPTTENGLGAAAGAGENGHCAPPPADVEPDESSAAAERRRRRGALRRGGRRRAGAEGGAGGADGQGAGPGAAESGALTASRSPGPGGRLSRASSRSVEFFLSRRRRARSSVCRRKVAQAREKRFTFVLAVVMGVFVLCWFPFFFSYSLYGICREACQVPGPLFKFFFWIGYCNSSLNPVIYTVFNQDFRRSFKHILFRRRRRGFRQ
Experiment: Competition binding, [3H]rauwolscine, human α2C receptor
Settings: pKi alpha-2 2c
Protocol: The protocols for these experiments are given below. α2 Human Adrenergic Receptors: To determine the potency of […], antagonists at the α2 receptors, LM(tk−) cell lines stably transfected with the genes encoding the α2A, α2B, and α2C receptors were used. The cell line expressing the α2A receptor is designated L-α2A, and was deposited on Nov. […] Equilibrium competition binding assay were performed using [3H]rauwolscine (0.5 nM), and nonspecific binding was determined by incubation with 10 μM phentolamine. […]
Structures can show the parent of a compound that is named as a salt.
Record form. Attribute: Ki. Fill in for each entry.

Record excerpt, results attached:
COC(=O)C1=C(C)NC(C)=C(C(=O)NCCCN2CCC(c3ccccc3)(c3ccccc3)CC2)C1c1ccc(Cl)cc1 (stereo not shown) :: 1230 nM
COC(=O)C1=C(C)NC(C)=C(C(=O)NCCCN2CCC(c3ccccc3)(c3ccccc3)CC2)C1c1cc(OC)c(OC)c(OC)c1 (stereo not shown) :: 1200 nM
COC(=O)C1=C(C)NC(C)=C(C(=O)N(C)CCCN2CCC(c3ccccc3)(c3ccccc3)CC2)C1c1ccc([N+](=O)[O-])cc1 (stereo not shown) [Example 46, hydrochloride hemihydrate] :: 245 nM

Any idea what its Ki is? The compound is COC(=O)C1=C(C)NC(C)=C(C(=O)NCCCN2CCC(c3ccccc3)(c3ccccc3)CC2)C1c1ccc(F)cc1 (stereo not shown)
813 nM
